pIC50: −log10 of the molar value. Peptide text beside a SMILES is read from it.
Please consider the recorded pIC50 for HLA-B0702 (Homo sapiens) in what follows.

Past entries and their recorded results:
molecule	pIC50
CC[C@H](C)[C@H](NC(=O)[C@@H](NC(=O)[C@H](CC(C)C)NC(=O)[C@H](CCC(=O)O)NC(=O)[C@H](CO)NC(=O)[C@H](CCC(=O)O)NC(=O)[C@@H](N)CC(C)C)C(C)C)C(=O)NCC(=O)N[C@@H](C)C(=O)N[C@H](C(=O)O)C(C)C [Epitope Y211] (H-LESELVIGAV-OH; N-terminus and C-terminus assumed)	< 4.82
CC[C@H](C)[C@H](NC(=O)[C@H](CC(N)=O)NC(=O)[C@H](CCCCN)NC(=O)[C@H](Cc1ccccc1)NC(=O)[C@@H](NC(=O)[C@@H](N)Cc1ccccc1)C(C)C)C(=O)N[C@@H](CC(=O)O)C(=O)NCC(=O)N[C@@H](Cc1ccc(O)cc1)C(=O)O [Epitope Y172] (H-FVFKNIDGY-OH; N-terminus and C-terminus assumed)	< 4.82
CC(C)[C@H](NC(=O)[C@@H](NC(=O)[C@@H](N)Cc1ccccc1)C(C)C)C(=O)N[C@@H](CO)C(=O)N[C@H](C(=O)NCC(=O)N[C@@H](Cc1ccc(O)cc1)C(=O)N[C@@H](Cc1c[nH]cn1)C(=O)N[C@@H](Cc1ccccc1)C(=O)O)[C@@H](C)O [Epitope Y167] (H-FVVSTGYHF-OH; N-terminus and C-terminus assumed)	< 4.82
CSCC[C@H](NC(=O)[C@H](C)NC(=O)[C@@H]1CCCN1C(=O)[C@H](CC(=O)O)NC(=O)[C@H](C)NC(=O)[C@H](C)NC(=O)[C@H](Cc1ccc(O)cc1)NC(=O)[C@@H](NC(=O)[C@@H](N)CC(C)C)C(C)C)C(=O)O [Epitope Y165] (H-LVYAADPAM-OH; N-terminus and C-terminus assumed)	4.82 to 5.30
CSCC[C@H](NC(=O)[C@H](C)NC(=O)[C@@H](N)Cc1ccccc1)C(=O)N[C@@H](CCC(N)=O)C(=O)N[C@@H](CCSC)C(=O)N[C@@H](C)C(=O)N[C@@H](Cc1ccc(O)cc1)C(=O)N[C@@H](CCCNC(=N)N)C(=O)N[C@@H](Cc1ccccc1)C(=O)O [Epitope Y189]	> 5.30
CC(C)[C@H](NC(=O)[C@H](CC(N)=O)NC(=O)[C@H](Cc1ccc(O)cc1)NC(=O)[C@H](C)NC(=O)[C@@H](N)CCCCN)C(=O)N[C@H](C(=O)N[C@@H](CCC(N)=O)C(=O)N[C@@H](C)C(=O)N[C@@H](Cc1ccccc1)C(=O)O)[C@@H](C)O [Epitope Y62] (H-KAYNVTQAF-OH)	< 4.82

Form field pIC50, entry CC(C)C[C@H](NC(=O)[C@H](CC(C)C)NC(=O)[C@@H](NC(=O)[C@@H](NC(=O)[C@@H](NC(=O)[C@H](CCC(N)=O)NC(=O)[C@H](CCC(N)=O)NC(=O)[C@H](CCCCN)NC(=O)[C@@H](N)CCCCN)[C@@H](C)O)C(C)C)[C@@H](C)O)C(=O)O [Epitope Y196] (H-KKQQTVTLL-OH; N-terminus and C-terminus assumed) : < 4.82

Form field pIC50, entry CSCC[C@H](NC(=O)[C@H](CO)NC(=O)[C@H](CCC(N)=O)NC(=O)[C@H](CCC(N)=O)NC(=O)[C@H](CC(C)C)NC(=O)[C@H](CCC(N)=O)NC(=O)[C@H](CCCCN)NC(=O)[C@H](CO)NC(=O)[C@@H](N)Cc1ccccc1)C(=O)O [Epitope Y135] (H-FSKQLQQSM-OH; N-terminus and C-terminus assumed) : 4.82 to 5.30

Form field pIC50, entry CC(C)C[C@H](NC(=O)[C@H](CC(C)C)NC(=O)[C@H](C)NC(=O)[C@H](CCC(N)=O)NC(=O)[C@H](CCCNC(=N)N)NC(=O)[C@@H](NC(=O)[C@H](CCCNC(=N)N)NC(=O)[C@H](CCC(=O)O)NC(=O)CN)C(C)C)C(=O)O [Epitope Y202] (H-GERVRQALL-OH; N-terminus and C-terminus assumed) : < 4.82

###

tested_target: UniProtKB P10321
test_name: Competitive peptide binding assay, CIR-C0702
Peptide text beside a SMILES is read from it.
experimental_endpoint: IC50

Past entries and their recorded results:
compound	IC50
CC(C)C[C@H](NC(=O)[C@@H](NC(=O)[C@H](CCCNC(=N)N)NC(=O)[C@H](CO)NC(=O)[C@@H](NC(=O)[C@H](C)NC(=O)[C@@H](N)C(C)C)[C@@H](C)O)[C@@H](C)O)C(=O)N[C@@H](CO)C(=O)N[C@@H](Cc1ccc(O)cc1)C(=O)O [Epitope M72] (H-VATSRTLSY-OH; N-terminus and C-terminus assumed)	> 15 µM
CC[C@H](C)[C@H](NC(=O)[C@H](C)NC(=O)[C@H](CC(C)C)NC(=O)[C@@H](NC(=O)[C@@H](N)C(C)C)[C@@H](C)O)C(=O)N[C@@H](CC(C)C)C(=O)N[C@H](C(=O)N[C@@H](C)C(=O)N[C@@H](CC(C)C)C(=O)O)[C@@H](C)O [Epitope M3, VTLAILTAL] (H-VTLAILTAL-OH; N-terminus and C-terminus assumed)	5 to 15 µM
CC(C)[C@H](NC(=O)[C@H](CC(N)=O)NC(=O)[C@H](Cc1ccc(O)cc1)NC(=O)[C@H](C)NC(=O)[C@@H](N)CCCCN)C(=O)N[C@H](C(=O)N[C@@H](CCC(N)=O)C(=O)N[C@@H](C)C(=O)N[C@@H](Cc1ccccc1)C(=O)O)[C@@H](C)O [Epitope M11] (H-KAYNVTQAF-OH)	5 to 15 µM

Form field IC50, entry CC(C)[C@H](NC(=O)[C@@H](N)Cc1ccccc1)C(=O)N[C@@H](CO)C(=O)N[C@@H](CC(N)=O)C(=O)NCC(=O)N[C@H](C(=O)N[C@@H](Cc1c[nH]cn1)C(=O)N[C@@H](Cc1c[nH]c2ccccc12)C(=O)N[C@@H](Cc1ccccc1)C(=O)O)[C@@H](C)O [Epitope M68] (H-FVSNGTHWF-OH; N-terminus and C-terminus assumed) : > 15 µM

Form field IC50, entry CC(C)C[C@H](NC(=O)[C@H](Cc1ccccc1)NC(=O)[C@@H](NC(=O)[C@@H](N)C(C)C)C(C)C)C(=O)N[C@@H](Cc1c[nH]cn1)C(=O)N[C@H](C(=O)N[C@H](C(=O)N[C@@H](Cc1ccc(O)cc1)C(=O)N[C@H](C(=O)O)C(C)C)[C@@H](C)O)C(C)C [Epitope M131] (H-VVFLHVTYV-OH; N-terminus and C-terminus assumed) : > 15 µM

###

tested_target: HLA-C0303 (Homo sapiens, UniProt P10321, A176E/A330V/A97T/C25G/C350S/D114A/D33Y/E197K/G115R/L119I/L127V/L171W/L218V/M285V/M309V/M331V/P208H/Q277E/Q291P/R243W/R45H/S123Y/S140Y/S297R/S48A/T118I/T187L/T329A/T363A/V319A)
test_name: Competitive peptide binding assay, CIR-C0303
test_conditions: HMy2.CIR-C0303 cells, reference Cy5-[…], class from inhibition at 5 and 15 μM, flow cytometry MFI; read-out: Binding affinity with HLA-C0303
pIC50: −log10 of the molar value. Peptide text beside a SMILES is read from it.
experimental_endpoint: pIC50

compound	pIC50
CC[C@H](C)[C@H](NC(=O)[C@H](C)NC(=O)[C@H](C)NC(=O)[C@H](CC(N)=O)NC(=O)CNC(=O)[C@H](CC(=O)O)NC(=O)[C@H](CCC(N)=O)NC(=O)[C@H](C)NC(=O)[C@@H](N)Cc1ccccc1)C(=O)O [Epitope M22] (H-FAQDGNAAI-OH; N-terminus and C-terminus assumed)	< 4.82

Form field pIC50, entry CSCC[C@H](NC(=O)[C@H](C)NC(=O)[C@@H]1CCCN1C(=O)[C@H](CC(=O)O)NC(=O)[C@H](C)NC(=O)[C@H](C)NC(=O)[C@H](Cc1ccc(O)cc1)NC(=O)[C@@H](NC(=O)[C@@H](N)CC(C)C)C(C)C)C(=O)O [Epitope M58] (H-LVYAADPAM-OH; N-terminus and C-terminus assumed) : 4.82 to 5.30

Form field pIC50, entry C[C@H](NC(=O)[C@H](CO)NC(=O)[C@H](CO)NC(=O)[C@@H](N)Cc1ccc(O)cc1)C(=O)N[C@@H](CC(N)=O)C(=O)N[C@@H](CC(N)=O)C(=O)N[C@@H](CS)C(=O)N[C@H](C(=O)N[C@@H](Cc1ccccc1)C(=O)O)[C@@H](C)O [Epitope M64] (H-YSSANNCTF-OH; N-terminus and C-terminus assumed) : < 4.82

Form field pIC50, entry CC[C@H](C)[C@H](N)C(=O)N[C@@H](C)C(=O)N[C@@H](CC(N)=O)C(=O)N[C@@H](CCC(N)=O)C(=O)N[C@@H](Cc1ccccc1)C(=O)N[C@@H](CC(N)=O)C(=O)N[C@@H](CO)C(=O)N[C@@H](C)C(=O)N[C@H](C(=O)O)[C@@H](C)CC [Epitope M37] (H-IANQFNSAI-OH; N-terminus and C-terminus assumed) : > 5.30

Form field pIC50, entry CC(C)C[C@H](NC(=O)[C@H](CCC(=O)O)NC(=O)[C@H](Cc1ccccc1)NC(=O)[C@H](CO)NC(=O)[C@H](CC(C)C)NC(=O)[C@@H](NC(=O)[C@@H](NC(=O)[C@@H](NC(=O)[C@H](CCCNC(=N)N)NC(=O)[C@@H](N)Cc1ccc(O)cc1)C(C)C)C(C)C)C(C)C)C(=O)O [Epitope M156] (H-YRVVVLSFEL-OH; N-terminus and C-terminus assumed) : < 4.82

Form field pIC50, entry CC[C@H](C)[C@H](NC(=O)[C@H](Cc1ccccc1)NC(=O)[C@@H](N)Cc1ccc(O)cc1)C(=O)N[C@@H](C)C(=O)N[C@@H](CO)C(=O)N[C@@H](Cc1ccccc1)C(=O)N[C@@H](CCCNC(=N)N)C(=O)N[C@@H](CC(C)C)C(=O)N[C@@H](Cc1ccccc1)C(=O)O [Epitope M107] (H-YFIASFRLF-OH; N-terminus and C-terminus assumed) : 4.82 to 5.30

Form field pIC50, entry CC(C)[C@H](NC(=O)[C@@H](NC(=O)[C@H](Cc1ccccc1)NC(=O)[C@@H]1CCCN1C(=O)[C@@H](NC(=O)CNC(=O)[C@H](CC(=O)O)NC(=O)[C@@H](NC(=O)[C@@H](N)Cc1ccccc1)C(C)C)C(C)C)C(C)C)C(=O)O [Epitope M96] (H-FVDGVPFVV-OH; N-terminus and C-terminus assumed) : < 4.82

Form field pIC50, entry CSCC[C@H](NC(=O)[C@H](C)NC(=O)[C@@H](N)Cc1ccccc1)C(=O)N[C@@H](CCC(N)=O)C(=O)N[C@@H](CCSC)C(=O)N[C@@H](C)C(=O)N[C@@H](Cc1ccc(O)cc1)C(=O)N[C@@H](CCCNC(=N)N)C(=O)N[C@@H](Cc1ccccc1)C(=O)O [Epitope M63] : 4.82 to 5.30
